Here the recorded AIRE transcriptional activation functional score is given for each entry.
B1: library; numbered along this chain (parent)
chain: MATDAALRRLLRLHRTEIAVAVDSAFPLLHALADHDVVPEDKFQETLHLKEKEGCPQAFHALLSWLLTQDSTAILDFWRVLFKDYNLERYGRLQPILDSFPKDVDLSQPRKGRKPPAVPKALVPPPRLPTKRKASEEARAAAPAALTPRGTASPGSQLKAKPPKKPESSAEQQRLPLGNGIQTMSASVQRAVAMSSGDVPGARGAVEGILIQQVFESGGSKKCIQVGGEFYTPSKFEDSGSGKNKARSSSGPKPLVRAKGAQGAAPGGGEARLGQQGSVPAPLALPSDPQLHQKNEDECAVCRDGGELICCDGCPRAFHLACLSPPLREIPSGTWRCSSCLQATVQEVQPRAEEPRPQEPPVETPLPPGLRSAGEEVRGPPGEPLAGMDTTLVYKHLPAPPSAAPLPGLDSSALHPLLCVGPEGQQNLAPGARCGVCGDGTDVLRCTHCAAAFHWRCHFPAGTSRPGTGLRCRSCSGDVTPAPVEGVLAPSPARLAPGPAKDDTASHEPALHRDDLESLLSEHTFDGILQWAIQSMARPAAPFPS

variants of: B1; assay: AIRE transcriptional activation functional score (insulin promoter-GFP; nonsense median 0, synonymous median 1) (normalised score); higher = higher AIRE activity (more reporter activation); conditions: with insulin promoter-GFP reporter in HEK293
Just the number, please, no unit attached.

Consider the following illustrative entries.
A541K 0.252
L210I 0.93
V393Y 0.561

QUERY: Provide one value: measured AIRE transcriptional activation functional score of S64E
RESULT: -0.72

QUERY: State its AIRE transcriptional activation functional score for this variant: A117P
RESULT: 0.913
